Values compiled from ChEMBL document CHEMBL3734724.

- PROTOCOL: Ratio of compound IC50 to SK228 IC50 for human M10 cells
- Format: ADME, cell-based
- RECORDED_CONDITIONS: read-out: Ratio IC50
ATTRIBUTE_MEASURED: selectivity ratio
Note: the reply should be a number with no unit written.

-- ask Fill in the blank: the reported selectivity ratio of Oc1ccc2[nH]cc(C(c3ccc(C(c4c[nH]c5ccc(O)cc45)c4c[nH]c5ccc(O)cc45)nc3)c3c[nH]c4ccc(O)cc34)c2c1 is ____.
-- reply 4

----------
- PROTOCOL: Cytotoxicity against human M10 cells assessed as growth inhibition after 48 hrs by MTT assay
- Assay type: cell-based
- RECORDED_CONDITIONS: M10, 48 h
ATTRIBUTE_MEASURED: IC50

Below, each entry is followed by its recorded IC50 result.
[
  {
    "SMILES_CODE": "Brc1ccc2[nH]cc(C(c3cccc(C(c4c[nH]c5ccc(Br)cc45)c4c[nH]c5ccc(Br)cc45)n3)c3c[nH]c4ccc(Br)cc34)c2c1",
    "ATTRIBUTE_MEASURED": "IC50",
    "READOUT_VALUE": "> 20 µM"
  },
  {
    "SMILES_CODE": "N#Cc1ccc2[nH]cc(C(c3cccc(C(c4c[nH]c5ccc(C#N)cc45)c4c[nH]c5ccc(C#N)cc45)n3)c3c[nH]c4ccc(C#N)cc34)c2c1",
    "ATTRIBUTE_MEASURED": "IC50",
    "READOUT_VALUE": "> 20 µM"
  },
  {
    "SMILES_CODE": "Brc1ccc2[nH]cc(C(c3ccc(C(c4c[nH]c5ccc(Br)cc45)c4c[nH]c5ccc(Br)cc45)nc3)c3c[nH]c4ccc(Br)cc34)c2c1",
    "ATTRIBUTE_MEASURED": "IC50",
    "READOUT_VALUE": "> 20 µM"
  },
  {
    "SMILES_CODE": "COc1ccc2[nH]cc(C(c3ccc(C(c4c[nH]c5ccc(OC)cc45)c4c[nH]c5ccc(OC)cc45)nc3)c3c[nH]c4ccc(OC)cc34)c2c1",
    "ATTRIBUTE_MEASURED": "IC50",
    "READOUT_VALUE": "> 20 µM"
  }
]

-- ask Fill in the blank: the reported IC50 of Oc1ccc2[nH]cc(C(c3ccc(C(c4c[nH]c5ccc(O)cc45)c4c[nH]c5ccc(O)cc45)nc3)c3c[nH]c4ccc(O)cc34)c2c1 is ____.
-- reply > 20 µM

-- ask Fill in the blank: the reported IC50 of Fc1ccc2[nH]cc(C(c3ccc(C(c4c[nH]c5ccc(F)cc45)c4c[nH]c5ccc(F)cc45)nc3)c3c[nH]c4ccc(F)cc34)c2c1 is ____.
-- reply 19 µM

----------
- PROTOCOL: Cytotoxicity against human M10 cells assessed as growth inhibition at 20 uM after 48 hrs by MTT assay relative to control
- Assay type: cell-based
- RECORDED_CONDITIONS: read-out: GI
ATTRIBUTE_MEASURED: inhibition at 48 h, 20 µM (%)
Supply the numeric figure in %, leaving out any unit text.

Below, each entry is followed by its recorded inhibition at 48 h, 20 µM result.
[
  {
    "SMILES_CODE": "Oc1ccc2[nH]cc(C(c3ccc(C(c4c[nH]c5ccc(O)cc45)c4c[nH]c5ccc(O)cc45)nc3)c3c[nH]c4ccc(O)cc34)c2c1",
    "READOUT_VALUE": 37
  },
  {
    "SMILES_CODE": "Clc1ccc2[nH]cc(C(c3cccc(C(c4c[nH]c5ccc(Cl)cc45)c4c[nH]c5ccc(Cl)cc45)n3)c3c[nH]c4ccc(Cl)cc34)c2c1",
    "READOUT_VALUE": 28
  },
  {
    "SMILES_CODE": "Brc1ccc2[nH]cc(C(c3cccc(C(c4c[nH]c5ccc(Br)cc45)c4c[nH]c5ccc(Br)cc45)n3)c3c[nH]c4ccc(Br)cc34)c2c1",
    "READOUT_VALUE": 0
  },
  {
    "SMILES_CODE": "c1ccc(COc2ccc3[nH]cc(C(c4cccc(C(c5c[nH]c6ccc(OCc7ccccc7)cc56)c5c[nH]c6ccc(OCc7ccccc7)cc56)n4)c4c[nH]c5ccc(OCc6ccccc6)cc45)c3c2)cc1",
    "READOUT_VALUE": 30
  },
  {
    "SMILES_CODE": "N#Cc1ccc2[nH]cc(C(c3cccc(C(c4c[nH]c5ccc(C#N)cc45)c4c[nH]c5ccc(C#N)cc45)n3)c3c[nH]c4ccc(C#N)cc34)c2c1",
    "READOUT_VALUE": 0
  },
  {
    "SMILES_CODE": "c1cc(C(c2c[nH]c3ccccc23)c2c[nH]c3ccccc23)nc(C(c2c[nH]c3ccccc23)c2c[nH]c3ccccc23)c1",
    "READOUT_VALUE": 32
  }
]

-- ask Fill in the blank: the reported inhibition at 48 h, 20 µM of COc1ccc2[nH]cc(C(c3ccc(C(c4c[nH]c5ccc(OC)cc45)c4c[nH]c5ccc(OC)cc45)nc3)c3c[nH]c4ccc(OC)cc34)c2c1 is ____.
-- reply 0

-- ask Fill in the blank: the reported inhibition at 48 h, 20 µM of c1ccc2c(C(c3ccc(C(c4c[nH]c5ccccc45)c4c[nH]c5ccccc45)nc3)c3c[nH]c4ccccc34)c[nH]c2c1 is ____.
-- reply 26

-- ask Fill in the blank: the reported inhibition at 48 h, 20 µM of Oc1ccc2c(C(c3ccc(C(c4c[nH]c5cc(O)ccc45)c4c[nH]c5cc(O)ccc45)nc3)c3c[nH]c4cc(O)ccc34)c[nH]c2c1 is ____.
-- reply 0

----------
- PROTOCOL: Cytotoxicity against human M10 cells assessed as growth inhibition at 20 uM after 48 hrs by MTT assay relative to control
- Format: cell-based
- RECORDED_CONDITIONS: read-out: GI
Property: inhibition at 48 h, 20 µM; scope: individual compounds
Supply the numeric figure in %, leaving out any unit text.

Below, each entry is followed by its recorded inhibition at 48 h, 20 µM result.
[
  {
    "SMILES_CODE": "Oc1ccc2[nH]cc(C(c3cccc(C(c4c[nH]c5ccc(O)cc45)c4c[nH]c5ccc(O)cc45)n3)c3c[nH]c4ccc(O)cc34)c2c1",
    "inhibition at 48 h, 20 µM / %": 9
  },
  {
    "SMILES_CODE": "Brc1ccc2[nH]cc(C(c3ccc(C(c4c[nH]c5ccc(Br)cc45)c4c[nH]c5ccc(Br)cc45)nc3)c3c[nH]c4ccc(Br)cc34)c2c1",
    "inhibition at 48 h, 20 µM / %": 0
  }
]

-- ask Fill in the blank: the reported inhibition at 48 h, 20 µM of COc1ccc2[nH]cc(C(c3cccc(C(c4c[nH]c5ccc(OC)cc45)c4c[nH]c5ccc(OC)cc45)n3)c3c[nH]c4ccc(OC)cc34)c2c1 is ____.
-- reply 0

-- ask Fill in the blank: the reported inhibition at 48 h, 20 µM of Clc1ccc2[nH]cc(C(c3ccc(C(c4c[nH]c5ccc(Cl)cc45)c4c[nH]c5ccc(Cl)cc45)nc3)c3c[nH]c4ccc(Cl)cc34)c2c1 is ____.
-- reply 25

-- ask Fill in the blank: the reported inhibition at 48 h, 20 µM of N#Cc1ccc2[nH]cc(C(c3ccc(C(c4c[nH]c5ccc(C#N)cc45)c4c[nH]c5ccc(C#N)cc45)nc3)c3c[nH]c4ccc(C#N)cc34)c2c1 is ____.
-- reply 0
